- Test system: DcpS (Homo sapiens)
- Construct: His tag; made in house; host or cells: E. coli BL21(DE3) RIL
- Sequence (Q96C86 1-337): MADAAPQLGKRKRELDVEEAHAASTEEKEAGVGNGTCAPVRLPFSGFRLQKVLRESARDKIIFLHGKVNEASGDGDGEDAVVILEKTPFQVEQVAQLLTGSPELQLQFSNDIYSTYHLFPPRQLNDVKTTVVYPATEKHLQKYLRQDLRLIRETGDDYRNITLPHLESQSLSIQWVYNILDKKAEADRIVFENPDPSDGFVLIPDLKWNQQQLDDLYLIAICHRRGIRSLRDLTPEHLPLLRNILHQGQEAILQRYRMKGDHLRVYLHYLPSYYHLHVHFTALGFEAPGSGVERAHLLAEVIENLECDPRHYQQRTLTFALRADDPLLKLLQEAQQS
- Assay name: FA competition assay for DcpS
- Format: binding
- Experimental context: 1f:DcpS system; 1f and 100 nM DcpS
Readout name: EC50 (nM)
One number for each entry, in nM.

Previously resolved entries follow.
>  <Structure smiles string>
Cn1c[n+]([C@@H]2O[C@H](COP(=O)(O)O)[C@@H](O)[C@H]2O)c2nc(N)[nH]c(=O)c21

>  <Readout name>
EC50

>  <Reading>
104

$$$$
>  <Structure smiles string>
Cn1c[n+]([C@@H]2O[C@H](COP(=O)(O)OP(=O)([O-])O)[C@@H](O)[C@H]2O)c2nc(N)[nH]c(=O)c21

>  <Readout name>
EC50

>  <Reading>
36.5

$$$$

// query With DcpS (Homo sapiens) as the test system, provide measured EC50 for this molecule: C[n+]1cn([C@@H]2O[C@H](COP(=O)([O-])NP(=O)(O)OP(=O)(O)OC[C@H]3O[C@@H](n4cnc5c(=O)[nH]c(N)nc54)[C@H](O)[C@@H]3O)[C@@H](O)[C@H]2O)c2nc(N)[nH]c(=O)c21.N.N
// result 27.8

---

- Test system: eIF4E (Mus musculus)
- Construct: Murine eIF4E (residues 28–217) was expressed in E. coli; made in house; host or cells: E. coli
- Sequence (P63073 28-217): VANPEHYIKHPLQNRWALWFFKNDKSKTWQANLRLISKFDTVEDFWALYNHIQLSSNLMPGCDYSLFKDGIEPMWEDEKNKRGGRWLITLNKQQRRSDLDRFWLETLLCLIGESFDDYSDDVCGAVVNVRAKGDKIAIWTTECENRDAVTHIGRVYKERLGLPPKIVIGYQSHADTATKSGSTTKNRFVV
- Assay name: FA competition (probe-displacement) assay for eIF4E
- Assay type: binding, Murine
- Experimental context: Probe 1a: 10 nM probe 1a and 100 nM eIF4E
So I've got a bunch of molecules here, and I need their Hill slope values.

Previously resolved entries follow.
>  <Molecule>
Cn1c[n+]([C@@H]2O[C@H](COP(=O)(O)OP(=O)([O-])O)[C@@H](O)[C@H]2O)c2nc(N)[nH]c(=O)c21

>  <Hill slope>
1.36 ± 0.03

$$$$
>  <Molecule>
C[n+]1cn([C@@H]2O[C@H](COP(=O)([O-])OP(O)(=S)OP(=O)(O)OC[C@H]3O[C@@H](n4cnc5c(=O)[nH]c(N)nc54)[C@H](O)[C@@H]3O)[C@@H](O)[C@H]2O)c2nc(N)[nH]c(=O)c21 (single isomer, unassigned) [m^7GppSpG D1]

>  <Hill slope>
1.37 ± 0.02

$$$$
>  <Molecule>
CO[C@@H]1[C@H](O)[C@@H](COP([O-])(=S)OP(=O)(O)OP(=O)(O)OP(=O)(O)OC[C@H]2O[C@@H](n3cnc4c(=O)[nH]c(N)nc43)[C@H](O)[C@@H]2O)O[C@H]1n1c[n+](C)c2c(=O)[nH]c(N)nc21 (single isomer, unassigned) [m^7′-OGpSpppG D2, m^7,2′-OGpSpppG D2]

>  <Hill slope>
1.94 ± 0.26

$$$$
>  <Molecule>
Cn1c[n+]([C@@H]2O[C@H](COP(=O)(O)OP(=O)([O-])OP(=O)(O)OC[C@H]3O[C@@H](n4cnc5c(=O)[nH]c(N)nc54)[C@H](O)[C@@H]3O)[C@@H](O)[C@H]2O)c2nc(N)[nH]c(=O)c21

>  <Hill slope>
1.12 ± 0.03

$$$$
>  <Molecule>
C[n+]1cn([C@@H]2O[C@H](COP(=O)([O-])OP(O)(=S)OP(=O)(O)OC[C@H]3O[C@@H](n4cnc5c(=O)[nH]c(N)nc54)[C@H](O)[C@@H]3O)[C@@H](O)[C@H]2O)c2nc(N)[nH]c(=O)c21 (single isomer, unassigned) [m^7GppSpG D2]

>  <Hill slope>
1.19 ± 0.06

$$$$

// query Provide Hill slope value for the following molecule: CO[C@@H]1[C@H](O)[C@@H](COP([O-])(=S)OP(=O)(O)OP(=O)(O)OP(=O)(O)OC[C@H]2O[C@@H](n3cnc4c(=O)[nH]c(N)nc43)[C@H](O)[C@@H]2O)O[C@H]1n1c[n+](C)c2c(=O)[nH]c(N)nc21 (single isomer, unassigned) [m^7′-OGpSpppG D1, m^7,2′-OGpSpppG D1]
// result 2.07 ± 0.02
